Test system: Escherichia coli TOP10;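 note: peptides expressed intracellularly from a pBAD plasmid library in pooled LB shake-flask culture, induced with 0.3% L-arabinose, DNA abundance read by NGS, three biological replicates, DESeq2 with apeglm shrinkage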
Assay: shrunken log2 fold change of peptide-encoding DNA abundance (4.5 h post-induction vs induction); higher = less antimicrobial activity (less host growth inhibition)
Details: time post-induction: 4.5 h; library: site-saturation at positions 5, 18, 19, 20
Classes (shrunken log2 fold change): band A: < -0.07; band B: ≥ -0.07 and < 0.1; band C: ≥ 0.1

Inquiry: Sort RRIRPRPPRLPRPRPRPGEAPRP into one of the categories.
Reply text: band C

Inquiry: Sort RRIRDRPPRLPRPRPRPHDCPRP into one of the categories.
Reply text: band B

Inquiry: Sort RRIRARPPRLPRPRPRPWYSPRP into one of the categories.
Reply text: band A

Inquiry: Sort RRIRFRPPRLPRPRPRPTLQPRP into one of the categories.
Reply text: band A

Inquiry: Sort RRIRLRPPRLPRPRPRPVKKPRP into one of the categories.
Reply text: band B

Inquiry: Sort RRIRVRPPRLPRPRPRPGEQPRP into one of the categories.
Reply text: band B
